Molecular target: HLA-B*07:02
Assay: IEDB peptide-MHC binding, purified MHC/competitive/fluorescence; bounds were set here for any values at or beyond the usual limits of such assays
Settings: source organism: Zaire ebolavirus
pIC50: −log10 of the molar value.
Here the recorded pIC50 is given for each entry.

>  <record sequence>
RDRFKRTSF

>  <limit qualifier>
≤

>  <pIC50>
4.13

$$$$
>  <record sequence>
GIRGFPRCR

>  <limit qualifier>
≤

>  <pIC50>
3.35

$$$$
>  <record sequence>
LPAAPDGIR

>  <limit qualifier>
=

>  <pIC50>
4.26

$$$$
>  <record sequence>
HPLARTAKV

>  <limit qualifier>
=

>  <pIC50>
5.51

$$$$
>  <record sequence>
GPAAEGIYI

>  <limit qualifier>
=

>  <pIC50>
4.22

$$$$
>  <record sequence>
TELRTFSIL

>  <limit qualifier>
=

>  <pIC50>
4.30

$$$$
